Data credit: patent US7514534

Reported % Inhibition of JEG-3 cell invasion, 5 µg/ml (further test) by item:
tested_on: T1, MMP-26 (human)
T1 sequence: ASDF
assay_comment: cell-based or functional assay
Please respond with the number in % and leave the unit unwritten.

As a guide, the following entries are already answered.
D04 (antibody, human IgG4, V domains shown) VH: EVQLLESGGGLVQPGGSLRLSCAASGFTFSDYQMMWVRQAPGKGLEWVSRISPSGGMTRYADSVKGRFTISRDNSKNTLYLPMNSLRAEDTAVYYCARSGPYYFDYWGQGTLVTVSS VL: DIQMTQSPSSLSASVGDRVAITCRASQSIDTYLNWYQQKPGKAPKLLIYAASKLEDGVPSRFSGSGTGTDFTLTIRSLQPEDFASYFCQQSYSSPGITFGPGTKVEIKR | 34
H6-orig (antibody, human IgG4, V domains shown) VH: EVQLLESGGGLVQPGGSLRLSCAASGFTFSQYWMNWVRQAPGKGLEWVSGIGPSGGITYYADSVKGRFTISRDNSKNTLYLQMNSLRAEDTAVYYCARGEEDGYNSDYWGQGTLVTVSS VL: QSELTQPPSASGSPGQSVTISCTGTSSDVGAYNYVSWYQQHPGKAPKLIIYEVNKRPSGVPDRFSASKSGNTASLTVSGLQAEDEADYYCNSYAGSNSLIFGGGTKLTVLG | 52
B10 (antibody, human IgG4, V domains shown) VH: EVQLLESGGGLVQPGGSLRLSCAASGFTFSSYAMMWVRQAPGKGLEWVSWIVPSGGTTFYADSVKGRFTISRDNSKNTLYLQMNSLRAEDTAVYYCARGLYRWGQGTLVTVSSASTKGPSVFP VL: DIQMTQSPSSLSASVGDRVTIACRTSQNVNRYLNWYQHKLGQAPKLLIYGATILQSGVPSRFRGSGSGTDFILTITNLQPEDFAVYYCQQTYSPPLTFGQGTKAEFKGTVAAPSV | 5
C01 (antibody, human IgG4, V domains shown) VH: EVQLLESGGGLVQPGGSLRLSCAASGFTFSNYGMSWVRQAPGKGLEWVSVIGPSGGITMYADSVKGRFTISRDNSKNTLYLQMNSLRAEDTAVYYCATGSSSGWYPNFDYWGQGTLVTVSS VL: DIQMTQSPSTLSASVGDRVTITCRASQSIGNWLAWYQQKPGEAPHLLIYQASSLEGGVPSRFSGSGSGTKFTLNISSLQPDDFATYYCQQYNSYSYTFGQGTKLDIKR | 16
A11 (antibody, human IgG4, V domains shown) VH: EVQLLESGGGLVQPGGSLRLSCAASGFTFSWYTMMWVRQAPGKGLEWVSRISPSGGHTLYADSVKGRFTISRDNSZNTLYLQMNSLRAEDTAVYYCARDTWDDYYDSSGYYNDFDYWGQGTLVTVSS VL: QSALTQPPSVSLAPGQTARITCGGNNIGTKSVHWYQQKPGQAPVLVVYDDSDRPSGIPERFSGSNSGNTATLTISRVEAGDEADYYCQVWDSGSDHQVFGGGTKLTVLG | 54
A01 (antibody, human IgG4, V domains shown) VH: EVQLLESGGGLVQPGGSLRLSCAASGFTFSAYNMFWVRQAPGKGLEWVSGIGSSGGIAPYADSVKGRFTISRDNSKNTLYLQMNSLRAEDTAVYYCARAAYEVENWFDPWGQGTLVTVSS VL: DIQMTQSPGTLSLSPGERATLSCRASQIVRSTYLAWYQQKPGQAPRLLIYGTSSRATGVPDRFSGSGSGTDFTLTISGLEPEDFALYYCQRYGDSPPITFGQGTRLEITR | 47
C04 (antibody, human IgG4, V domains shown) VH: EVQLLESGGGLVQPGGSLRLSCAASGFTFSMYFMVWVRQAPGKGLEWVSWIGSSGGETPYADSVKGRFTISRDNSKNTLYLQMNSLRAEDTAVYYCARGYSSGWYVMGDYWGQGTLVTVSS VL: QSALTQPPSASGTPGQRVTISCSGTSSNIGSHYVFWYQQLPGTAPKLLIHRNDERPSGVPDRFSGSKSGTSASLAISGLQSEDEADYYCATWDDNLNGPVFGGGTKLT | 11
C08 (antibody, human IgG4, V domains shown) VH: EVQLLESGGGLVQPGGSLRLSCAASGFTFSYYEMMWVRQAPGKGLEWVSSISPSGGPTMYADSVKGRFTISRDNSKNTLYLQMNSLRAEDTGVYYCARKMGRVGYCSSTSCYRDDYYGMDVWGQGTTVTVSS VL: DIQMTQSPPSLSALVGDRVTITCRASQSISRYVNWYQQKPGKAPKVLIYAASIVENGVPSRFSGSGSGTDFSLTISSLQPEDFATYYCQQTYSTPLTFGGGTKLAIKR | 42

Alright, here's another binder for you.
q: I am curious: what % Inhibition of JEG-3 cell invasion, 5 µg/ml (further test) value has been reported for D08 (antibody, human IgG4, V domains shown) VH: EVQLLESGGGLVQPGGSLRLSCAASGFTFSFYAMWWVRQAPGKGLEWVSRIYSSGGKTWYADSVKGRFTISRDNSKNTLYLQMNSLRAEDTAVYYCARVGMSTYAFDIWGQGTMVTVSS VL: DIQMTQSPSSLSASVGDRVTITCRASQSISDYLNWYQQKPGKAPDLLIYAASSLQSGVPSRFSGSGSGTDFTLTVSSLQPEDFATYFCQQSYSIPLTFGGGTKVEITR ?
a: 50
